- targetDesc: BCAT2 (Homo sapiens, UniProt O15382)
- Sequence (O15382 28-392): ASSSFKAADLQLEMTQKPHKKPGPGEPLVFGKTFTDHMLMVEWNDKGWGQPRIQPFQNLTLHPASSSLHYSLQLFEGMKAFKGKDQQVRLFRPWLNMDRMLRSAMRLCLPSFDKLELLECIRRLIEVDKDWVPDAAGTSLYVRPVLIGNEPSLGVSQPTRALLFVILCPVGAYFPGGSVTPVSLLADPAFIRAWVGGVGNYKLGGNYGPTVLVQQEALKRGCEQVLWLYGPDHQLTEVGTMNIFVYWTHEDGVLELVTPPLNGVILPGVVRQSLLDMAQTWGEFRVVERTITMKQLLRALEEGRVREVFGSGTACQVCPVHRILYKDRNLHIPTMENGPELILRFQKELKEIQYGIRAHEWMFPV
- experimentSummary: BCAT2 in vitro cell inhibition using engineered A549 cells (KMV cell assay, 13C6-KMV by LC-MS/MS)
- Type: cell-based
- Parameters: The result was an engineered A549 cell line that expressed endogenous BCAT2; endogenous in cells; host or cells: A549 cells with MUT and BCAT1 knocked out by CRISPR/CAS9
- measurementParameters: average where tested multiple times
measuredMetric: IC50

[[record]]
compound = "O=C(N[C@H]1CCC[C@@H](n2c(C3CCCCO3)nc3cnc(-c4nc[nH]n4)cc32)C1)c1ncc(Cl)s1 (single isomer, unassigned) [Example 89]"
targetdesc = "BCAT2 (Homo sapiens, UniProt O15382)"
measuredmetric = "IC50"
reportedmeasurement = "100 to 500 nM"

[[record]]
compound = "CC(C)Cc1nc2cnc(-c3nc[nH]n3)cc2n1[C@@H]1CCC[C@H](NC(=O)c2ccc(C#N)s2)C1 [Example 344]"
targetdesc = "BCAT2 (Homo sapiens, UniProt O15382)"
measuredmetric = "IC50"
reportedmeasurement = "≤ 100 nM"

[[record]]
compound = "O=C(N[C@H]1CCC[C@@H](n2c(-c3ccccc3F)nc3cnc(-c4nncn4C(F)F)cc32)C1)c1ncc(Cl)s1 [Example 377]"
targetdesc = "BCAT2 (Homo sapiens, UniProt O15382)"
measuredmetric = "IC50"
reportedmeasurement = "> 1000 nM"

[[record]]
compound = "COc1cccc(-c2cc3c(cn2)nc(-c2ccccc2F)n3[C@@H]2CCC[C@H](NC(=O)c3ncc(Cl)s3)C2)n1 [Example 179]"
targetdesc = "BCAT2 (Homo sapiens, UniProt O15382)"
measuredmetric = "IC50"
reportedmeasurement = "≤ 100 nM"

[[record]]
compound = "O=C(N[C@H]1CCC[C@@H](n2c(-c3ccccc3O)nc3cnc(-n4nccn4)cc32)C1)c1ncc(Cl)s1 [Example 363]"
targetdesc = "BCAT2 (Homo sapiens, UniProt O15382)"
measuredmetric = "IC50"
reportedmeasurement = "≤ 100 nM"

[[record]]
compound = "CO[C@H]1C[C@@H](NC(=O)c2ncc(Cl)s2)C[C@@H](n2c(-c3ccccc3F)nc3cnc(-c4nc[nH]n4)cc32)C1 (stereo in doubt) [Example 420]"
targetdesc = "BCAT2 (Homo sapiens, UniProt O15382)"
measuredmetric = "IC50"
reportedmeasurement = "≤ 100 nM"


---

Listed here: items and their measured IC50.
- targetDesc: BCAT2 (Homo sapiens)
- experimentSummary: BCAT2 in vitro enzyme inhibition assay (resazurin/diaphorase-coupled fluorescence)
- Type: biochemical
- measurementParameters: average where tested multiple times
- Protocol: BCAT2 In Vitro Enzyme Inhibition Assay 1.67× hBCAT2 Enzyme Mix: 0.33 μg/mL hBCAT2, 1× Buffer 2.5× Substrate Mix: 460 μM L-leucine, 420 μM α-KetoGlutarate, 10 U/mL glutamate dehydrogenase, 10 mM NAD, 30 μg/mL diaphorase, 20 μm Resazurin BCAT2 enzyme stock solution was diluted to prepare a 1.67× hBCAT2 Enzyme Mix. […] Reactions were quenched after one hour by the addition of 25 μL of 6% SDS and reaction progress was measured via fluorescence read (Ex 540/Em 590). […]
measuredMetric: IC50

[[record]]
compound = "CC(=O)N1CC(NC(=O)c2ccc(Br)s2)CC(n2c(-c3ccccn3)nc3ccc(-c4ncon4)cc32)C1 (stereo not shown)"
reportedmeasurement = "≤ 100 nM"

[[record]]
compound = "O=C(N[C@H]1C[C@H](O)C[C@@H](n2c(-c3ccccc3F)nc3cnc(-c4ncco4)cc32)C1)c1ncc(Cl)s1"
reportedmeasurement = "≤ 100 nM"

[[record]]
compound = "O=C(N[C@@H]1C[C@@H](O)C[C@H](n2c(-c3ccccc3F)nc3cnc(F)cc32)C1)c1ncc(Cl)s1"
reportedmeasurement = "> 1000 nM"

[[record]]
compound = "COc1cc2c(cn1)nc(-c1ccccc1F)n2[C@H]1C[C@H](O)C[C@@H](NC(=O)c2ncc(Cl)s2)C1"
reportedmeasurement = "> 1000 nM"


---

Listed here: items and their measured IC50.
- targetDesc: BCAT2 (Homo sapiens)
- experimentSummary: BCAT2 in vitro cell inhibition using engineered A549 cells (KMV cell assay, 13C6-KMV by LC-MS/MS)
- Type: cell-based
- Set-up: The result was an engineered A549 cell line that expressed endogenous BCAT2; endogenous in cells; host or cells: A549 cells with MUT and BCAT1 knocked out by CRISPR/CAS9
- measurementParameters: average where tested multiple times
measuredMetric: IC50

[[record]]
molecule = "CC(C)Cc1nc2cnc(-c3nc[nH]n3)cc2n1[C@H]1CCC[C@@H](NC(=O)c2ncc(Cl)s2)[C@@H]1O"
reportedmeasurement = "> 1 µM"

[[record]]
molecule = "CC(C)[C@@H](O)c1nc2cnc(-c3ncccn3)cc2n1[C@@H]1CCC[C@H](NC(=O)c2ncc(Cl)s2)C1"
reportedmeasurement = "0.5 to 1 µM"

[[record]]
molecule = "CC(C)Cc1nc2cnc(-c3cccc(CO)n3)cc2n1[C@@H]1CCC[C@H](NC(=O)c2ncc(Cl)s2)C1"
reportedmeasurement = "0.5 to 1 µM"

[[record]]
molecule = "CC(C)Cc1nc2cnc(-c3cc(C(F)(F)F)n[nH]3)cc2n1[C@@H]1CCC[C@H](NC(=O)c2ncc(Cl)s2)[C@H]1O"
reportedmeasurement = "> 1 µM"

[[record]]
molecule = "O=C(N[C@H]1C[C@H](O)C[C@@H](n2c(-c3ccccc3F)nc3cnc(-c4ncco4)cc32)C1)c1ncc(Cl)s1"
reportedmeasurement = "≤ 0.1 µM"

[[record]]
molecule = "O=C(N[C@H]1CCCC[C@@H](n2c(-c3ccccc3F)nc3cnc(-c4nc[nH]n4)cc32)[C@@H]1O)c1ccc(Cl)s1"
reportedmeasurement = "≤ 0.1 µM"

[[record]]
molecule = "CO[C@@H]1C[C@@H](NC(=O)c2ncc(Cl)s2)C[C@@H](n2c(-c3ccccc3F)nc3cnc(N4CCC[C@H]4CO)cc32)C1"
reportedmeasurement = "> 1 µM"

[[record]]
molecule = "CN1C[C@H](NC(=O)c2ncc(Cl)s2)C[C@H](n2c(-c3ccccc3F)nc3cnc(-c4nc[nH]n4)cc32)C1 (single isomer, unassigned)"
reportedmeasurement = "≤ 0.1 µM"

[[record]]
molecule = "O=C(N[C@H]1CCC[C@@H](n2c(-c3ccccc3F)nc3cnc(-c4cc(F)ccn4)cc32)C1)c1ncc(Cl)s1"
reportedmeasurement = "≤ 0.1 µM"

[[record]]
molecule = "N#Cc1cnc(C(=O)N[C@H]2CCC[C@@H](n3c(-c4ncccc4F)nc4cnc(-n5nccn5)cc43)C2)s1"
reportedmeasurement = "≤ 0.1 µM"

[[record]]
molecule = "O=C(N[C@H]1CCC[C@@H](n2c(Oc3ccccc3F)nc3cnc(-c4nc[nH]n4)cc32)C1)c1ncc(Cl)s1"
reportedmeasurement = "> 1 µM"

[[record]]
molecule = "O=C(N[C@H]1CCC[C@@H](n2c(-c3ccccc3F)nc3cnc(-n4ccnn4)cc32)C1)c1ccc(Br)s1"
reportedmeasurement = "≤ 0.1 µM"

[[record]]
molecule = "CO[C@H]1C[C@H](NC(=O)c2ncc(Cl)s2)C[C@H](n2c(CC(C)C)nc3cnc(-c4ncc(C)o4)cc32)C1 (single isomer, unassigned)"
reportedmeasurement = "0.1 to 0.5 µM"

[[record]]
molecule = "O=C(N[C@H]1CCC[C@@H](n2c(-c3ccccn3)nc3cnc(-n4ccnn4)cc32)C1)c1ncc(Br)s1"
reportedmeasurement = "> 1 µM"

[[record]]
molecule = "Nc1cc2c(cn1)nc(-c1ccccc1F)n2[C@@H]1C[C@@H](O)C[C@H](NC(=O)c2ncc(Cl)s2)C1"
reportedmeasurement = "> 1 µM"

[[record]]
molecule = "O=C(N[C@@H]1CCC[C@H](n2c(-c3ccccc3F)nc3cnc(-c4ncco4)cc32)[C@H]1O)c1ncc(Cl)s1"
reportedmeasurement = "0.5 to 1 µM"

[[record]]
molecule = "CC(C)Cc1nc2cnc(-c3ncnn3C)cc2n1[C@@H]1CCC[C@H](NC(=O)c2ncc(Cl)s2)C1"
reportedmeasurement = "0.1 to 0.5 µM"

[[record]]
molecule = "O=C(NC1CC(O)CC(n2c(-c3ccccc3F)nc3cnc(-n4nccn4)cc32)C1)c1ncc(C(F)F)s1 (centres unmarked)"
reportedmeasurement = "≤ 0.1 µM"

[[record]]
molecule = "CC(C)(C)Cc1nc2cnc(-c3ccccn3)cc2n1[C@@H]1CCC[C@H](NC(=O)c2ncc(Cl)s2)[C@H]1O"
reportedmeasurement = "≤ 0.1 µM"

[[record]]
molecule = "O=C(N[C@H]1CCC[C@@H](n2c(-c3ncccc3F)nc3cnc(-n4nccn4)cc32)C1)c1ncc(C(F)(F)F)s1"
reportedmeasurement = "≤ 0.1 µM"

[[record]]
molecule = "CC(C)Cc1nc2cnc(-c3nc[nH]n3)cc2n1[C@@H]1CCCC[C@H](NC(=O)c2ncc(Cl)s2)C1"
reportedmeasurement = "≤ 0.1 µM"

[[record]]
molecule = "O=C(NC1COCC(n2c(-c3ncccc3F)nc3cnc(-n4nccn4)cc32)C1)c1ncc(C(F)F)s1 (single isomer, unassigned)"
reportedmeasurement = "0.1 to 0.5 µM"

[[record]]
molecule = "O=C(N[C@H]1CCC[C@@H](n2c(-c3ccccc3F)nc3cnc(-n4nccn4)cc32)C1)c1ccc(Br)s1"
reportedmeasurement = "≤ 0.1 µM"

[[record]]
molecule = "Cc1coc(-c2cc3c(cn2)nc(CC(C)C)n3[C@@H]2CCC[C@H](NC(=O)c3ncc(Cl)s3)C2)n1"
reportedmeasurement = "0.1 to 0.5 µM"

[[record]]
molecule = "O=C(N[C@H]1CCC[C@@H](n2c(-c3ccccc3F)nc3cnc(-c4n[nH]c(=O)o4)cc32)C1)c1ncc(Cl)s1"
reportedmeasurement = "0.1 to 0.5 µM"

[[record]]
molecule = "CC(C)Cc1nc2cnc(-n3cc(F)cn3)cc2n1[C@@H]1C[C@@H](O)C[C@H](NC(=O)c2ncc(Cl)s2)C1"
reportedmeasurement = "0.1 to 0.5 µM"

